Target: GLP-1 receptor (UniProt P43220 24-463, limits assumed)
Test: cell-based or functional assay
Bridges are numbered along the chain shown (N, C = ends). Primed or numbered codes have the meaning given here. Where no end group is shown, it is not given here. Side-chain parts run from the residue outwards. [ ]: non-standard residue; d: D form. maleimide = maleimide group on activated PEG, it reacts with the Cys thiol (Michael addition) to give a thioether linkage; PEG 40 kDa″ = polyethylene glycol of 40 kDa covalently attached to the side chain; PEG 40 kDa = PEG (40 kDa) covalently attached to Cys; Aib = CC(C)(N)C(=O)O
Measured EC50 values are reported for all entries that follow.
Expressed in pM, but write only the number.

Would you please look over these solved cases?
binder: FTSDYSIYLDEQAAKEFVNWLLAGGPSSGAPPPS-NH2 (not fully specified) [mt-192]
unitsText: pM
measured: 47000
//
binder: Y[Aib]QGTFTSDYSIYLDEQAAKEFVC(PEG 40 kDa)WLLAGGPSSGAPPPS-NH2 (lactam 16-20) [mt-175]
unitsText: pM
measured: 220
//
binder: Y[Aib]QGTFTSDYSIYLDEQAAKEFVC(PEG 40 kDa″)WLMNG-NH2 (lactam 16-20) [mt-186]
unitsText: pM
measured: 500

Query: Give EC50 for the following binder: Y[Aib]EGTFTSDYSIYLDEQAAKEFVNWLLAGGPSSGAPPPSC([maleimide-PEG 40 kDa])-NH2 (lactam 16-20) [mt-178]
Response: 171
